- Species: Rattus norvegicus
- procedure-details: Ratio of Ki for CRL:CD(SD)BR-COBS rat brain hippocampus 5HT1A to Ki for CRL:CD(SD)BR-COBS rat brain cortex alpha1-AR
- Assay type: tissue-based
readout-name: Ratio Ki
Enter a number only.

>>> assay_value("O=c1[nH]c2c(-c3ccccc3Cl)c[nH]c2c(=O)n1CCN1CCN(c2ccccc2Cl)CC1")
71.5
>>> assay_value("COc1ccc(-c2cc3c(=O)n(CCN4CCN(c5ccccc5OC)CC4)c(=O)n(Cc4ccccc4OC)c3[nH]2)cc1")
11.6
>>> assay_value("COc1ccccc1N1CCN(CCn2c(=O)[nH]c3[nH]c(-c4ccc(OCc5ccccc5)cc4)cc3c2=O)CC1")
76
>>> assay_value("COc1ccc(-c2cc3c(=O)n(CCN4CCN(c5ccccc5Cl)CC4)c(=O)n(Cc4ccccc4OC)c3[nH]2)cc1")
52.3
>>> assay_value("COc1ccccc1N1CCN(CCn2c(=O)[nH]c3[nH]c(-c4ccc(Cl)cc4)cc3c2=O)CC1")
98.4
>>> assay_value("O=c1[nH]c2[nH]c(-c3ccc(Oc4ccccc4)cc3)cc2c(=O)n1CCN1CCN(c2ccccc2Cl)CC1")
37.8
>>> assay_value("COc1ccccc1N1CCN(CCn2c(=O)[nH]c3c(-c4ccccc4)c[nH]c3c2=O)CC1")
6.44
>>> assay_value("COc1ccccc1N1CCN(CCn2c(=O)[nH]c3[nH]c(-c4ccc(-c5ccccc5)cc4)cc3c2=O)CC1")
67.8
>>> assay_value("COc1ccccc1N1CCN(CCn2c(=O)[nH]c3cc(-c4ccco4)[nH]c3c2=O)CC1")
8.54
>>> assay_value("O=c1[nH]c2c(-c3ccccc3)c[nH]c2c(=O)n1CCN1CCN(c2ccccc2Cl)CC1")
37.8

## Task # Ratio Ki lookup, item `COc1ccccc1N1CCN(CCn2c(=O)[nH]c3[nH]c(-c4ccccc4)c(-c4ccccc4)c3c2=O)CC1`
## Result 96.7

## Task Which Ratio Ki reading was recorded for the molecule `COc1ccccc1N1CCN(CCn2c(=O)c3cc(-c4ccccc4)[nH]c3n(Cc3ccccc3)c2=O)CC1` ?
## Result 8.08
